Ref: patent US20050032873A1

# Measurement Target: cloned human 5-HT1A receptors (Homo sapiens)
# Construct: expressed in transfected cells
# Experiment Description: 35S-GTPγS binding assay, 5-HT1A function
# Assay type: biochemical
# Experimental Setup: maximum stimulatory effect, in brackets after EC50; read-out: 5-HT1A Function GTPγS (Emax)
So I've got a bunch of molecules here, and I need their Emax values.

Any idea what its Emax is? The molecule is CCCN(CCCc1c[nH]c2ccc(F)cc12)C1CCc2cccc(OC)c2C1 (centres unmarked) [Compound 47]
100%

May I ask what Emax has been recorded for CCN(CCCc1c[nH]c2c(Cl)cccc12)C1COc2c(F)ccc(C(N)=O)c2C1 (centres unmarked) [Compound 110] ?
61%

Field request: Emax | item: CCCN(CCCc1coc2c(OC)cccc12)C1COc2c(F)ccc(C(N)=O)c2C1 (centres unmarked) [Compound 163]
52%

// query Emax value for entry CCCN(CCc1coc2c(OC)cccc12)C1COc2c(F)ccc(C(N)=O)c2C1 (centres unmarked) [Compound 158]
59%

Could you tell me which Emax is on file for NC(=O)c1ccc(F)c2c1OCC(NCCCCc1c[nH]c3ccc(F)cc13)C2 (centres unmarked) [Compound 123] ?
100%

Which Emax value belongs to CNC(=O)c1cccc2c1CC(N(CCCc1c[nH]c3c(F)cc(F)cc13)C1CCC1)CO2 (centres unmarked) [Compound 138] ?
100%

What does the record list as Emax for COC(=O)c1ccc(F)c2c1CC(NCCCCc1c[nH]c3ccc(F)cc13)CO2 (centres unmarked) [Compound 57] ?
89%

For the molecule COc1cccc2c1CC(N(CCCc1c[nH]c3ccc(F)cc13)C1CC1)CO2 (centres unmarked) [Compound 41] , what Emax is on record?
84%

* * *

# Measurement Target: cloned human 5-HT1A receptors (Homo sapiens)
# Experiment Description: 35S-GTPγS binding assay, 5-HT1A function
# Experimental Setup: agonist potency
Exercise: for every item that follows, state its recorded pEC50.
Conceptually, pEC50 converts a concentration in mol/L into minus its log10.

I would be grateful if you could share the reported pEC50 for `CCCN(CCCc1c[nH]c2ccc(F)cc12)[C@H]1COc2c(F)ccc(OC)c2C1` .
6.78

Record request: pEC50 value, item O=C(NC1CC1)c1cccc2c1CC(N(CCCc1c[nH]c3c(F)cc(F)cc13)C1CCC1)CO2 (centres unmarked)
6.91

Look at this compound and give its reported pEC50. CCCN(CCCc1c[nH]c2c(F)cc(F)cc12)C1COc2c(C(N)=O)ccc(F)c2C1 (centres unmarked)
5.03

Endpoint output: pEC50 of CCCN(CCc1c[nH]c2ccc(F)cc12)C1COc2cccc(OC)c2C1 (centres unmarked) . Value?
6.69

Which pEC50 value is on record for CCNC(=O)c1cccc2c1CC(N(CCCc1c[nH]c3c(F)cc(F)cc13)C1CCC1)CO2 (centres unmarked) ?
6.74

Please report the recorded pEC50 for CCCN(CCCc1c[nH]c2ccc(F)cc12)C1CCc2cccc(OC)c2C1 (centres unmarked) .
7.98

Could you tell me which pEC50 is on file for COC(=O)c1ccc(F)c2c1C[C@H](NCCCCc1c[nH]c3ccc(F)cc13)CO2 [Compound 57a] ?
5.76

Form field: reported pEC50 of CNC(=O)c1ccc(F)c2c1CC(NCCCc1c[nH]c3ccc(F)cc13)CO2 (centres unmarked)
5.75

I'd like to know its pEC50. The compound in question is CCCN(C1COc2cccc(OC)c2C1)[C@H]1CC[C@@H](c2c[nH]c3ccc(F)cc32)CC1 (relative stereo)
6.05

What value of measured pEC50 is listed for COc1cccc2c1CC(N(CCCc1c[nH]c3ccc(F)cc13)C1CC1)CO2 (centres unmarked) ?
5.46

Name the recorded pEC50 for CCCN(CCCc1coc2ccccc12)C1COc2c(F)ccc(C(N)=O)c2C1 (centres unmarked) .
7.45

pEC50 lookup needed for CCN(CCCc1c[nH]c2ccc(F)cc12)C1COc2c(F)ccc(C(=O)NC)c2C1 (centres unmarked) , thanks.
6.96

Quick one: pEC50 of COc1cccc2c1CC(N(CCCc1cn(C)c3ccc(F)cc13)CC1CC1)CO2 (centres unmarked) ?
7.59

What value of pEC50 has been recorded for this entry: CCCN(CCCc1c[nH]c2ccc(F)cc12)C1COc2c(F)ccc(C(=O)NC)c2C1 (centres unmarked)
7.46

I have this compound here, CCN(CCCCc1coc2ccccc12)C1COc2cccc(OC)c2C1 (centres unmarked) , and I need its recorded pEC50.
6.65

Consider the compound shown here: CCCN(CCCc1csc2ccc(F)cc12)C1COc2cccc(OC)c2C1 (centres unmarked) What is its recorded pEC50?
6.50

pEC50 for NC(=O)c1ccc(F)c2c1OCC(N(CCCc1c[nH]c3c(F)cc(F)cc13)CC1CC1)C2 (centres unmarked) ?
6.10

* * *

Would you kindly list Emax for each of these compounds?
# Measurement Target: 5-HT1A receptor (Homo sapiens, UniProt P08908)
# Sequence (P08908 1-422): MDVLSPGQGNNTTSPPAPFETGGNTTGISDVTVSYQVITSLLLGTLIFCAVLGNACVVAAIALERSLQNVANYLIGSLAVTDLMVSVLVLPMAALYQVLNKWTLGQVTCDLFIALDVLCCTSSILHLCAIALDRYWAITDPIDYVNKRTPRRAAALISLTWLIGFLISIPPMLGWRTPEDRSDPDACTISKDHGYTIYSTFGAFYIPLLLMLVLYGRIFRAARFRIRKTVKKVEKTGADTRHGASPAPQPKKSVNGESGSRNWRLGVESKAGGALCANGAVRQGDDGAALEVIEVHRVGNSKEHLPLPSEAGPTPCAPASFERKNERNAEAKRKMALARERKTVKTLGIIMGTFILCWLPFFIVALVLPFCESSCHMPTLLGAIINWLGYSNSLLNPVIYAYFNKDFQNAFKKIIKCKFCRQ
# Experiment Description: cAMP accumulation assay, 5-HT1A function
# Type: cell-based
# Experimental Setup: in brackets after EC50 or IC50; read-out: 5-HT1A Function cAMP (Emax)
Answer format: numeric, % implied, no suffix.

Suppose we examine the compound N#Cc1ccc2[nH]cc(CCCN(C3CCC3)[C@H]3COc4c(F)ccc(C(N)=O)c4C3)c2c1 [Compound 97b] ; what Emax value has been reported?
0

Sample NC(=O)c1ccc(F)c2c1CC(NCCCc1c[nH]c3ccc(F)cc13)CO2 (single isomer, unassigned; (+)) [Compound 1a] — what was its Emax?
84.5

Requested read-out: Emax. Entry: COc1cccc2c(CCCN(C3CCC3)C3COc4c(F)ccc(C(N)=O)c4C3)c[nH]c12 (stereo not drawn)
0

Could you tell me which Emax is on file for NC(=O)c1cccc2c1C[C@H](NCCCc1c[nH]c3ccc(F)cc13)CO2 [Compound 133a] ?
53

Data request, read-out Emax, for CCCN(CCC(O)c1csc2ccc(F)cc12)C1COc2c(F)ccc(C(N)=O)c2C1 (stereo not drawn)
74.5

Entry NC(=O)c1ccc(F)c2c1CC(N(CCCc1c[nH]c3cc(F)ccc13)C1CCC1)CO2 (stereo not drawn) : reported Emax = ?
0

Need Emax of CCCN(CCCc1c[nH]c2ccc(F)cc12)C1COc2c(F)ccc(C(=O)NC)c2C1 (stereo not drawn) , thanks.
0

Item under review: CNC(=O)c1ccc(F)c2c1C[C@H](N(CCCCc1c[nH]c3ccc(F)cc13)C1CCC1)CO2 [Compound 145a] . Reported Emax?
0

For the compound shown here, N#Cc1ccc2[nH]cc(CCCN(CC3CC3)[C@H]3COc4c(F)ccc(C(N)=O)c4C3)c2c1 [Compound 98b] , give the reported Emax.
0

Which Emax value belongs to NC(=O)c1ccc(F)c2c1C[C@@H](NCC1CCc3c([nH]c4ccc(F)cc34)C1)CO2 (single isomer, unassigned; (-)) [Compound 179b] ?
0

Field request: Emax | item: CCCN(CCCc1c[nH]c2c(F)cc(F)cc12)C1COc2c(C(N)=O)ccc(F)c2C1 (stereo not drawn)
75.5

So what's the measured Emax for this one? CCN(CC1CCc2[nH]c3ccc(F)cc3c2C1)[C@H]1COc2c(F)ccc(C(N)=O)c2C1 (single isomer, unassigned; (-)) [Compound 176a]
0

What value of Emax has been reported for the following compound? CCN(CCCCn1ccc2c(F)cccc21)C1COc2c(F)ccc(C(N)=O)c2C1 (stereo not drawn)
92

What value of Emax has been recorded for this entry: COc1cccc2c1CC(N(CCCc1c[nH]c3ccc(C#N)cc13)CC1CC1)CO2 (stereo not drawn)
89.5

Please look up its Emax: COc1cccc2c1CC(N(CCCc1c[nH]c3ccc(F)cc13)CC1CC1)CO2 (stereo not drawn)
91

* * *

# Measurement Target: cloned human 5-HT1A receptors (Homo sapiens, UniProt P08908)
# Construct: expressed in transfected cells
# Experiment Description: 35S-GTPγS binding assay, 5-HT1A function
# Assay type: biochemical
# Experimental Setup: maximum inhibitory effect, in brackets after IC50; read-out: 5-HT1A Function GTPγS (Imax)
Measured Metric: Emax
Form entry: enter the amount, then its unit.

I'd like to know its Emax. The compound in question is NC(=O)c1ccc(F)c2c1C[C@@H](NCC1CCc3c([nH]c4ccc(F)cc34)C1)CO2 (single isomer, unassigned; (+)) [Compound 179a]
100%

Query: Emax; subject: CCCN(CCCCn1ccc2cccc(F)c21)C1COc2c(F)ccc(C(N)=O)c2C1 (stereo not shown) [Compound 190]
84%

I'd like to know its Emax. The compound in question is CCCN(CCCCc1coc2c(OC)cccc12)C1COc2c(F)ccc(C(N)=O)c2C1 (stereo not shown) [Compound 169]
100%

What Emax value was documented for this compound, CNC(=O)c1ccc(F)c2c1CC(N(CCCc1c[nH]c3ccc(F)cc13)CC1CC1)CO2 (stereo not shown) [Compound 91] ?
77%

Recorded Emax for COc1cccc2c(CCCN(C3CCC3)C3COc4c(F)ccc(C(N)=O)c4C3)c[nH]c12 (stereo not shown) [Compound 102] , please?
100%

Which Emax reading was recorded for the compound COc1cccc2c(CCCNC3COc4c(F)ccc(C(N)=O)c4C3)c[nH]c12 (stereo not shown) [Compound 99] ?
100%

GET /values?readout=Emax&item= NC(=O)c1ccc(F)c2c1CC(N(CCCc1c[nH]c3ccc(Cl)cc13)C1CCC1)CO2 (stereo not shown) [Compound 117]
100%

Returns the measured Emax for the input compound. Input: NC(=O)c1ccc(F)c2c1CC(N(CCCCn1ccc3ccc(F)cc31)CC1CC1)CO2 (stereo not shown) [Compound 195]
100%

Recorded Emax of CNC(=O)c1ccc(F)c2c1CC(N(CCCCc1c[nH]c3ccc(F)cc13)C1CCC1)CO2 (stereo not shown) [Compound 95] , please.
100%

Any idea what its Emax is? The compound is CCN(CCCCc1c[nH]c2ccc(F)cc12)C1COc2c(F)ccc(C(N)=O)c2C1 (stereo not shown) [Compound 80]
100%

# lookup: Emax of CNC(=O)c1ccc(F)c2c1CC(N(CCCCc1c[nH]c3ccc(F)cc13)CC1CC1)CO2 (stereo not shown) [Compound 94]
100%

What does the data say about its Emax? Entry: CCCN(CCCc1c[nH]c2ccc(F)cc12)C1COc2c(F)ccc(C(N)=O)c2C1 (single isomer, unassigned; (-)) [Compound 2a]
77.4%

// Emax lookup, key: CCN(CCCCn1ccc2cccc(F)c21)C1COc2c(F)ccc(C(N)=O)c2C1 (stereo not shown) [Compound 189]
100%

May I ask what Emax has been recorded for O=C(NC1CC1)c1ccc(F)c2c1CC(N(CCCc1c[nH]c3ccc(F)cc13)C1CCC1)CO2 (stereo not shown) [Compound 64] ?
90%

Return reported Emax; argument: NC(=O)c1ccc(F)c2c1CC(N(CCCc1c[nH]c3ccc(F)cc13)CC1CC1)CO2 (single isomer, unassigned; (-)) [Compound 5a]
100%

Suppose we examine the compound CCCN(CCCc1c[nH]c2ccc(F)cc12)C1COc2c(F)ccc(C(=O)NC)c2C1 (stereo not shown) [Compound 90] ; what Emax value has been reported?
33%
